Values compiled from patent EP1377579B1.

measured-target: cdk2/cyclin E (Homo sapiens, UniProt P24941)
assay-procedure: Cyclin-dependent kinase assay, cdk2/cyclin E
recorded-conditions: CDK2 IC50, nM, GST-pRb substrate, 10 µM ATP
Structures can show the parent of a compound that is named as a salt.
Each record is given TRUE if its reported IC50 is strictly below 60 nM. Records at or above 60 nM are given FALSE.

N[C@H]1CC[C@H](Nc2nc(NC3CCN(C(=O)Nc4c(F)cccc4C(F)(F)F)CC3)c3ncn(C4CCCC4)c3n2)CC1 [compound 201, dihydrochloride]    TRUE
N[C@H]1CC[C@H](Nc2nc(NC3CCN(C(=O)c4cccc(Cl)c4)CC3)c3ncn(C4CCCC4)c3n2)CC1 [compound 72]    FALSE
N[C@H]1CC[C@H](Nc2nc(NC3CCN(C(=O)NC(=O)c4ccccc4)CC3)c3ncn(C4CCCC4)c3n2)CC1 [compound 172, dihydrochloride]    FALSE

Query string: Below 60 nM on IC50? Entry CC(C)(C)CC(=O)N1CCC(Nc2nc(N[C@H]3CC[C@H](N)CC3)nc3c2ncn3C2CCCC2)CC1 [compound 51, dihydrochloride]
Result string: FALSE

Query string: Below 60 nM on IC50? Entry CSc1ccc(NC(=O)N2CCC(Nc3nc(N[C@H]4CC[C@H](N)CC4)nc4c3ncn4C3CCCC3)CC2)cc1 [compound 186, dihydrochloride]
Result string: TRUE

Query string: Below 60 nM on IC50? Entry CCOC(=O)c1ccc(NC(=O)N2CCC(Nc3nc(N[C@H]4CC[C@H](N)CC4)nc4c3ncn4C3CCCC3)CC2)cc1.Cl.Cl [compound 154, dihydrochloride]
Result string: TRUE
